Value source: the supplement of paper PMC10567573

B1: RAB40A (parent)
chain: NWLGRPSKVLSLQDLCCRTIVSCT

variants of: B1; experiment: protein stability index of a GFP-peptide fusion (GPS, HEK-293T) (PSI 1-6); higher = more stable; conditions: c terminus: a fixed tail appended;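 note: lentivirally expressed fusions sorted by FACS into six bins by GFP to DsRed ratio, PSI derived from sequencing read proportions per bin multiplied by bin number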
recorded.metric: protein stability index
Give a plain numeric answer without units written out.

{"biopolymer.sequence": "NWNGRPSKVLSLQDLCCRTIVSCT [L3N]", "recorded.measurement": 2.46}
{"biopolymer.sequence": "NWLGRPSEVLSLQDLCCRTIVSCT [K8E]", "recorded.measurement": 2.26}
{"biopolymer.sequence": "TWLGRPSKVLSLQDLCCRTIVSCT [N1T]", "recorded.measurement": 2.16}
{"biopolymer.sequence": "SWLGRPSKVLSLQDLCCRTIVSCT [N1S]", "recorded.measurement": 2.36}

Recorded result, NWLGRPSKVLSLQDGCCRTIVSCT [L15G] , protein stability index: 1.74

Recorded result, NWLGDPSKVLSLQDLCCRTIVSCT [R5D] , protein stability index: 2.51

Recorded result, NWLGRPSKVKSLQDLCCRTIVSCT [L10K] , protein stability index: 2.35
